Test system: 521955-158-R2-J5-PDC complex spheroid growth, % test/control
Procedure details: Anticancer human tumor 521955-158-R2-J5-PDC patient-derived pancreatic carcinoma cell line growth inhibition [Asc]
Experimental context: second compound 0.01 µM; first compound 0.0316 µM; hits give low values
Provide the reported viability, T/C of each item.
Answers are plain numbers, in %.

C=CC(=O)N1CCN(c2nc(=O)n(-c3c(C)ccnc3C(C)C)c3nc(-c4c(O)cccc4F)c(F)cc23)C(C)C1 (stereo not drawn) + CNC(C)C(=O)NC1CN(S(=O)(=O)c2cccc(S(=O)(=O)N3CCC4CCC(C(=O)NC(c5ccccc5)c5ccccc5)N4C(=O)C(NC(=O)C(C)NC)C3)c2)CCC2CCC(C(=O)NC(c3ccccc3)c3ccccc3)N2C1=O :: 91.1
O=C(c1ccc(F)c(F)c1Nc1ccc(I)cc1F)N1CC(O)([C@@H]2CCCCN2)C1 + CNC(C)C(=O)NC1CN(S(=O)(=O)c2cccc(S(=O)(=O)N3CCC4CCC(C(=O)NC(c5ccccc5)c5ccccc5)N4C(=O)C(NC(=O)C(C)NC)C3)c2)CCC2CCC(C(=O)NC(c3ccccc3)c3ccccc3)N2C1=O :: 38.5

Let us move to another entry and its viability, T/C.
Which viability, T/C is listed for C#Cc1c(F)ccc2cc(O)cc(-c3ncc4c(N5CC6CCC(C5)N6)nc(OCC56CCCN5CC(F)C6)nc4c3F)c12 (stereo not drawn) + CNC(C)C(=O)NC1CN(S(=O)(=O)c2cccc(S(=O)(=O)N3CCC4CCC(C(=O)NC(c5ccccc5)c5ccccc5)N4C(=O)C(NC(=O)C(C)NC)C3)c2)CCC2CCC(C(=O)NC(c3ccccc3)c3ccccc3)N2C1=O ? 22.8

====

Tested on: 521955-158-R2-J5-PDC complex spheroid growth, % test/control
Procedure details: Anticancer human tumor 521955-158-R2-J5-PDC cell line growth inhibition [Asc];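 further: spheroids exposed to agents for 7 days before readout; 100% = DMSO vehicle control viability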
Experimental context: second compound 0.1 µM; first compound 3.16 µM; hits give low values
Readout name: viability, T/C (%)
Numbers only, in %.

State the recorded viability, T/C for every item in the following list.
1. O=C(c1cc(Cc2n[nH]c(=O)c3ccccc23)ccc1F)N1CCN(C(=O)C2CC2)CC1 + Cc1c(S(C)(=O)=O)c(-c2cc(F)cc(N3CCN(c4ccc(NS(=O)(=O)c5ccc(NC(CCN6CCC(C(=O)OCCCP(=O)(O)O)CC6)CSc6ccccc6)c(S(=O)(=O)C(F)(F)F)c5)cc4)CC3)c2)c(-c2ccc(Cl)cc2)n1C(C)C
2. C=CC(=O)N1CCN(c2nc(=O)n(-c3c(C)ccnc3C(C)C)c3nc(-c4c(O)cccc4F)c(F)cc23)C(C)C1 (stereo not given) + CNC(C)C(=O)NC1CN(S(=O)(=O)c2cccc(S(=O)(=O)N3CCC4CCC(C(=O)NC(c5ccccc5)c5ccccc5)N4C(=O)C(NC(=O)C(C)NC)C3)c2)CCC2CCC(C(=O)NC(c3ccccc3)c3ccccc3)N2C1=O
3. C=CC(=O)N1CCN(c2nc(=O)n(-c3c(C)ccnc3C(C)C)c3nc(-c4c(O)cccc4F)c(F)cc23)C(C)C1 (stereo not given) + Cc1c(S(C)(=O)=O)c(-c2cc(F)cc(N3CCN(c4ccc(NS(=O)(=O)c5ccc(NC(CCN6CCC(C(=O)OCCCP(=O)(O)O)CC6)CSc6ccccc6)c(S(=O)(=O)C(F)(F)F)c5)cc4)CC3)c2)c(-c2ccc(Cl)cc2)n1C(C)C
4. O=C(c1cc(Cc2n[nH]c(=O)c3ccccc23)ccc1F)N1CCN(C(=O)C2CC2)CC1 + CNC(C)C(=O)NC1CN(S(=O)(=O)c2cccc(S(=O)(=O)N3CCC4CCC(C(=O)NC(c5ccccc5)c5ccccc5)N4C(=O)C(NC(=O)C(C)NC)C3)c2)CCC2CCC(C(=O)NC(c3ccccc3)c3ccccc3)N2C1=O
5. C#Cc1c(F)ccc2cc(O)cc(-c3ncc4c(N5CC6CCC(C5)N6)nc(OCC56CCCN5CC(F)C6)nc4c3F)c12 (stereo not given) + CNC(C)C(=O)NC1CN(S(=O)(=O)c2cccc(S(=O)(=O)N3CCC4CCC(C(=O)NC(c5ccccc5)c5ccccc5)N4C(=O)C(NC(=O)C(C)NC)C3)c2)CCC2CCC(C(=O)NC(c3ccccc3)c3ccccc3)N2C1=O

1. 59
2. 97.4
3. 107
4. 74.6
5. 18.3

====

System: 521955-158-R2-J5-PDC complex spheroid growth, % test/control
Procedure details: Anticancer human tumor 521955-158-R2-J5-PDC cell line growth inhibition [Asc];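 further: spheroids exposed to agents for 7 days before readout; 100% = DMSO vehicle control viability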
Experimental context: second compound 3.16 µM; first compound 0.1 µM; hits give low values
Readout name: viability, T/C

Before answering, review these 2 worked examples.
Cn1ncnc1[C@H]1c2n[nH]c(=O)c3cc(F)cc(c23)N[C@@H]1c1ccc(F)cc1 + Cc1c(S(C)(=O)=O)c(-c2cc(F)cc(N3CCN(c4ccc(NS(=O)(=O)c5ccc(NC(CCN6CCC(C(=O)OCCCP(=O)(O)O)CC6)CSc6ccccc6)c(S(=O)(=O)C(F)(F)F)c5)cc4)CC3)c2)c(-c2ccc(Cl)cc2)n1C(C)C :: 56.8%
C#Cc1c(F)ccc2cc(O)cc(-c3ncc4c(N5CC6CCC(C5)N6)nc(OCC56CCCN5CC(F)C6)nc4c3F)c12 (stereo not drawn) + Cc1c(S(C)(=O)=O)c(-c2cc(F)cc(N3CCN(c4ccc(NS(=O)(=O)c5ccc(NC(CCN6CCC(C(=O)OCCCP(=O)(O)O)CC6)CSc6ccccc6)c(S(=O)(=O)C(F)(F)F)c5)cc4)CC3)c2)c(-c2ccc(Cl)cc2)n1C(C)C :: 41.3%

Pending compound:
Any idea what viability, T/C came out for NC1CCC(NC2CC2c2ccccc2)CC1 (stereo not drawn) + Cc1c(S(C)(=O)=O)c(-c2cc(F)cc(N3CCN(c4ccc(NS(=O)(=O)c5ccc(NC(CCN6CCC(C(=O)OCCCP(=O)(O)O)CC6)CSc6ccccc6)c(S(=O)(=O)C(F)(F)F)c5)cc4)CC3)c2)c(-c2ccc(Cl)cc2)n1C(C)C on 521955-158-R2-J5-PDC complex spheroid growth, % test/control? 33.9%

====

So I've got a bunch of compounds here, and I need their viability, T/C values.
Tested on: 521955-158-R2-J5-PDC complex spheroid growth, % test/control
Procedure details: Anticancer human tumor 521955-158-R2-J5-PDC cell line growth inhibition [Asc];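 further: spheroids exposed to agents for 7 days before readout; 100% = DMSO vehicle control viability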
Experimental context: second compound 0.3 µM; first compound 0.0316 µM; hits give low values
Text: Multicellular complex tumor spheroid response to apoptosis pathway targeting inhibitors Alrizomadlin, Pelcitoclax, and Dasminapant in combination with a variety of drugs and investigational agents in selected tumor cell lines […] Compounds. […] If the clinical Cmax for an agent had not been determined, the highest concentration tested was 10 microM. […]
Give bare numbers, in %.

COc1c(OCCCN2CCOCC2)ccc2c3n(c(=NC(=O)c4cnc(N)nc4)nc12)CCN3 + CCN1C(C(=O)NC23CCC(C(=O)O)(CC2)CC3)C(c2cccc(Cl)c2F)C2(C(=O)Nc3cc(Cl)ccc32)C12CCCCC2 :: 43.3

Would you kindly share the measured viability, T/C for CNC(C)C(=O)NC1CN(S(=O)(=O)c2cccc(S(=O)(=O)N3CCC4CCC(C(=O)NC(c5ccccc5)c5ccccc5)N4C(=O)C(NC(=O)C(C)NC)C3)c2)CCC2CCC(C(=O)NC(c3ccccc3)c3ccccc3)N2C1=O (configuration not stated) + CCN1C(C(=O)NC23CCC(C(=O)O)(CC2)CC3)C(c2cccc(Cl)c2F)C2(C(=O)Nc3cc(Cl)ccc32)C12CCCCC2 ? 84.3

====

Test system: 521955-158-R2-J5-PDC complex spheroid growth, % test/control
Procedure details: Anticancer human tumor 521955-158-R2-J5-PDC cell line growth inhibition [Asc];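 further: spheroids exposed to agents for 7 days before readout; 100% = DMSO vehicle control viability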
Experimental context: second compound 0.03 µM; first compound 0.316 µM; hits give low values
Readout name: viability, T/C (%)
Answers are plain numbers, in %.

// solved cases for viability, T/C follow
CCN1CCN(Cc2ccc(Nc3ncc(F)c(-c4cc(F)c5nc(C)n(C(C)C)c5c4)n3)nc2)CC1 + CCN1C(C(=O)NC23CCC(C(=O)O)(CC2)CC3)C(c2cccc(Cl)c2F)C2(C(=O)Nc3cc(Cl)ccc32)C12CCCCC2 :: 72.4
C=CC(=O)N1CCN(c2nc(=O)n(-c3c(C)ccnc3C(C)C)c3nc(-c4c(O)cccc4F)c(F)cc23)C(C)C1 (stereo not drawn) + CCN1C(C(=O)NC23CCC(C(=O)O)(CC2)CC3)C(c2cccc(Cl)c2F)C2(C(=O)Nc3cc(Cl)ccc32)C12CCCCC2 :: 92.5
C#Cc1c(F)ccc2cc(O)cc(-c3ncc4c(N5CC6CCC(C5)N6)nc(OCC56CCCN5CC(F)C6)nc4c3F)c12 (stereo not drawn) + CCN1C(C(=O)NC23CCC(C(=O)O)(CC2)CC3)C(c2cccc(Cl)c2F)C2(C(=O)Nc3cc(Cl)ccc32)C12CCCCC2 :: 33.2
O=C(c1ccc(F)c(F)c1Nc1ccc(I)cc1F)N1CC(O)([C@@H]2CCCCN2)C1 + CCN1C(C(=O)NC23CCC(C(=O)O)(CC2)CC3)C(c2cccc(Cl)c2F)C2(C(=O)Nc3cc(Cl)ccc32)C12CCCCC2 :: 37.2
COc1c(OCCCN2CCOCC2)ccc2c3n(c(=NC(=O)c4cnc(N)nc4)nc12)CCN3 + CCN1C(C(=O)NC23CCC(C(=O)O)(CC2)CC3)C(c2cccc(Cl)c2F)C2(C(=O)Nc3cc(Cl)ccc32)C12CCCCC2 :: 24.3
C=C(F)C(=O)N1CCN(c2nc(OCC3CCCN3C)nc3c2CCN(c2cccc4cccc(Cl)c24)C3)CC1CC#N (stereo not drawn) + CCN1C(C(=O)NC23CCC(C(=O)O)(CC2)CC3)C(c2cccc(Cl)c2F)C2(C(=O)Nc3cc(Cl)ccc32)C12CCCCC2 :: 77.5

For the 2 molecules below, give their viability, T/C values.
1. O=C(c1cc(Cc2n[nH]c(=O)c3ccccc23)ccc1F)N1CCN(C(=O)C2CC2)CC1 + CCN1C(C(=O)NC23CCC(C(=O)O)(CC2)CC3)C(c2cccc(Cl)c2F)C2(C(=O)Nc3cc(Cl)ccc32)C12CCCCC2
2. CNC(C)C(=O)NC1CN(S(=O)(=O)c2cccc(S(=O)(=O)N3CCC4CCC(C(=O)NC(c5ccccc5)c5ccccc5)N4C(=O)C(NC(=O)C(C)NC)C3)c2)CCC2CCC(C(=O)NC(c3ccccc3)c3ccccc3)N2C1=O (stereo not drawn) + CCN1C(C(=O)NC23CCC(C(=O)O)(CC2)CC3)C(c2cccc(Cl)c2F)C2(C(=O)Nc3cc(Cl)ccc32)C12CCCCC2

1. 68.7
2. 66
